Data credit: PubChem BioAssay AID1745844

tested on: rodent lifetime carcinogenesis bioassay, tumor incidence TD50; assay: carcinogenic potency in animals, long-term in vivo studies, CPDB compilation (AID 1745844); details: mouse; strain B6C3F1; females; in feed; site: all sites + Harderian gland + liver + Zymbal's gland; lesion: hemangioma + hemangiosarcoma + adenoma, NOS + hepatocellular adenoma + hepatocellular carcinoma + sebaceous adenocarcinoma + squamou; dosed 78 weeks; study length 95 weeks
READOUT KIND: TD50 (mg/kg/day)

{"COMPOUND STRING": "[O-]/[N+](=N\\O)c1ccccc1", "READOUT KIND": "TD50", "RESULT VALUE": 253}

---

test system: rodent lifetime carcinogenesis bioassay, tumor incidence TD50; experiment: carcinogenic potency in animals, long-term in vivo studies, CPDB compilation (AID 1745844); conditions: rat; strain Buffalo; females; in feed; site: kidney; lesion: tubular adenoma; dosed 46 weeks; study length 64 weeks

{"COMPOUND STRING": "O=CNNc1nc(-c2ccc([N+](=O)[O-])o2)cs1", "TD50": "98.6 mg/kg/day"}
